src = patent US12257247B2

Give DC50 for every item shown.
# TARGET: VAV1 (Homo sapiens, UniProt P15498+Q96SW2)
# Construct: A heterozygous VAV1 C-terminal HiBiT knock-in pool was generated at Monte Rosa Therapeutics from a clonal Jurkat cell; endogenous in cells; host or cells: Jurkat clone stably expressing LgBiT, homozygous GSPT1-G575N; heterozygous VAV1-HiBiT knock-in pool
# EXPERIMENT_SUMMARY: VAV1 degradation activity, VAV1-HiBiT knock-in Jurkat luminescence assay (Example A, Table 1)
# Type: cell-based
# MEASUREMENT_PARAMETERS: VAV1-HiBiT knock-in Jurkat cells, luminescence read at 6 and 24 hours; read-out: VAV1 DC50 (nM), class

// below: answered molecules
| MOLECULE | DC50 |
| --- | --- |
| O=C1CCC(c2cccc(-c3ccc(N4CCCCC4C(F)F)cc3)c2Cl)C(=O)N1 (stereo not shown) | 100 to 1000 nM |
| O=C1CCC(c2cccc(-c3ccc(N4C(=O)Cc5ccccc54)cc3)c2Cl)C(=O)N1 (stereo not shown) | ≤ 100 nM |
| CC1(C)CCCC(=O)N1Cc1ccc(-c2cccc(C3CCC(=O)NC3=O)c2Cl)cc1 (stereo not shown) | ≤ 100 nM |

// each molecule listed below needs its DC50
1. CCc1cc(-c2cccc(C3CCC(=O)NC3=O)c2Cl)ccc1N (stereo not shown)
2. O=C1CCC(c2cccc(-c3ccc(-n4cccc(CC(F)(F)F)c4=O)cc3)c2Cl)C(=O)N1 (stereo not shown)
3. O=C1CCC(c2cccc(-c3ccc(OC4CCOC4)cc3)c2Cl)C(=O)N1 (stereo not shown)
4. O=C1CCC(c2cccc(-c3ccc(N4C(=O)OCC45CC5)cc3)c2Cl)C(=O)N1 (stereo not shown)
5. O=C1CCC(c2cccc(-c3cnc(-n4ccccc4=O)c(F)c3)c2Cl)C(=O)N1 (stereo not shown)
6. Nc1ncn(Cc2ccc(-c3cccc(C4CCC(=O)NC4=O)c3Cl)cc2)n1 (stereo not shown)

Reply text:
1. ≤ 100 nM
2. ≤ 100 nM
3. 100 to 1000 nM
4. ≤ 100 nM
5. 100 to 1000 nM
6. ≤ 100 nM

====

# TARGET: VAV1 (Homo sapiens, UniProt P15498+Q96SW2)
# Construct: A heterozygous VAV1 C-terminal HiBiT knock-in pool was generated at Monte Rosa Therapeutics from a clonal Jurkat cell; endogenous in cells; host or cells: Jurkat clone stably expressing LgBiT, homozygous GSPT1-G575N; heterozygous VAV1-HiBiT knock-in pool
# EXPERIMENT_SUMMARY: VAV1 degradation activity, VAV1-HiBiT knock-in Jurkat luminescence assay (Example A, Table 1)
# Type: cell-based
# MEASUREMENT_PARAMETERS: VAV1-HiBiT knock-in Jurkat cells, luminescence read at 6 and 24 hours after compound addition; read-out: VAV1 DC50
Give DC50 for every item shown.
Answers are plain numbers, in nM.

| COMPOUND | UNIT_ABBREV | VAL |
| --- | --- | --- |
| Cn1ccc(CN2C(=O)CCc3cc(-c4cccc(C5CCC(=O)NC5=O)c4Cl)ccc32)n1 (stereo not drawn) [Compound 501] | nM | 8.19 |
| Cn1ccc(Cn2ccc3cc(-c4cccc(C5CCC(=O)NC5=O)c4Cl)ccc32)n1 (stereo not drawn) [Compound 499] | nM | 5.45 |
| Cn1ccc(Cn2c(=O)oc3cc(-c4cccc(C5CCC(=O)NC5=O)c4Cl)ccc32)n1 (stereo not drawn) [Compound 507] | nM | 28.6 |
| O=C1CCC(c2cccc(-c3ccc4c(c3)CCN4)c2F)C(=O)N1 (stereo not drawn) [Compound 491] | nM | 15.7 |
| O=C1CCC(c2cccc(-c3ccc4[nH]ncc4c3)c2Cl)C(=O)N1 (stereo not drawn) [Compound 485] | nM | 41 |

From here, focus on the item given below.
Inquiry: Give DC50 for this entry on VAV1 (Homo sapiens, UniProt P15498+Q96SW2): O=C1CCC(c2cccc(-c3ccc4cn[nH]c4c3)c2Cl)C(=O)N1 (stereo not drawn) [Compound 484]
Reply text: 220
